Data provenance is PubChem BioAssay AID1918942.

Task for the reader: assign each of the following molecules its reported IC50.
Tested on: 743489-274-T-PDC complex spheroid viability;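 further: spheroids exposed to compounds for 7 days before readout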
ASSAY METHOD TEXT: Anticancer human tumor 743489-274-T-PDC patient-derived renal cell carcinoma cell line growth inhibition
REPORTED CONDITIONS: curve of first compound; second compound 10 µM

Here's what some known entries look like.
{"MOLECULE": "NS(=O)(=O)OCC1CC(n2ccc3c(NC4CCc5ccccc54)ncnc32)CC1O (centres undefined) + NC1CC1c1ccc(-c2cccc(O)c2)cc1", "IC50": "> 3000 nM"}
{"MOLECULE": "CC(C)c1c(-c2ccccc2)nc2c(C#N)c[nH]n2c1=O + NC1CC1c1ccc(-c2cccc(O)c2)cc1", "IC50": "> 10000 nM"}
{"MOLECULE": "Nc1ccn(C2OC(CO)C(O)C2(F)F)c(=O)n1 (centres undefined) + NC1CCC(NC2CC2c2ccccc2)CC1", "IC50": "> 300 nM"}
{"MOLECULE": "CC1COCCN1c1cc(-c2ccnn2C)c2ccnc(-c3ccn[nH]3)c2n1 (centres undefined) + NC1CC1c1ccc(-c2cccc(O)c2)cc1", "IC50": "518 nM"}
{"MOLECULE": "CC1(C)CCC(CN2CCN(c3ccc(C(=O)NS(=O)(=O)c4ccc(NCC5CCOCC5)c([N+](=O)[O-])c4)c(Oc4cnc5[nH]ccc5c4)c3)CC2)=C(c2ccc(Cl)cc2)C1 + NC1CC1c1ccc(-c2cccc(O)c2)cc1", "IC50": "> 10000 nM"}
{"MOLECULE": "COc1ccc([C@@H](O)c2cc(-c3ncnc4cc(N5CCOCC5)ccc34)c(F)cc2Cl)nn1 + NC1CC1c1ccc(-c2cccc(O)c2)cc1", "IC50": "918 nM"}
{"MOLECULE": "COc1cc(C2c3cc4c(cc3C(OC3OC5COC(C)OC5C(O)C3O)C3COC(=O)C23)OCO4)cc(OC)c1O (centres undefined) + NC1CCC(NC2CC2c2ccccc2)CC1", "IC50": "> 3000 nM"}
{"MOLECULE": "Nc1ccccc1NC(=O)c1ccc(CNC(=O)OCc2cccnc2)cc1 + NC1CC1c1ccc(-c2cccc(O)c2)cc1", "IC50": "1320 nM"}
{"MOLECULE": "O=C(c1cc(Cc2n[nH]c(=O)c3ccccc23)ccc1F)N1CCN(C(=O)C2CC2)CC1 + NC1CC1c1ccc(-c2cccc(O)c2)cc1", "IC50": "> 10000 nM"}
{"MOLECULE": "O=C(C=Cc1cccc(S(=O)(=O)Nc2ccccc2)c1)NO + NC1CC1c1ccc(-c2cccc(O)c2)cc1", "IC50": "1380 nM"}

Need IC50 for each of these molecules.
1. CC1COCCN1c1cc(C2(S(C)(=N)=O)CC2)nc(-c2ccnc3[nH]ccc23)n1 (centres undefined) + NC1CCC(NC2CC2c2ccccc2)CC1
2. COc1cc(C2c3cc4c(cc3C(OC3OC5COC(C)OC5C(O)C3O)C3COC(=O)C23)OCO4)cc(OC)c1O (centres undefined) + NC1CC1c1ccc(-c2cccc(O)c2)cc1
3. O=C(C=Cn1cnc(-c2cc(C(F)(F)F)cc(C(F)(F)F)c2)n1)NNc1cnccn1 + NC1CCC(NC2CC2c2ccccc2)CC1
4. Nc1ccn(C2OC(CO)C(O)C2(F)F)c(=O)n1 (centres undefined) + NC1CC1c1ccc(-c2cccc(O)c2)cc1

Data returned:
> 10000 nM
> 3000 nM
> 1000 nM
110 nM
